Target: Ara h 8.0101 (Arachis hypogaea)
Construct: recombinant, 15N-labelled; N-terminal glycine (initiator Met apparently absent)
Sequence (Q6VT83 2-157): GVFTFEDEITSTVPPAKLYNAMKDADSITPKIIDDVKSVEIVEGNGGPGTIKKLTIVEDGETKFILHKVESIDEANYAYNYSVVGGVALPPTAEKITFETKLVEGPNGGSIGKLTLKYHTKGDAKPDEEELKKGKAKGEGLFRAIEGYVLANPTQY
Test: 1H-15N HSQC NMR titration
endpoint: pKd
Field pKd (float): negative decimal logarithm of the concentration in molar.

pKd for Oc1cc(O)c2c(c1)O[C@H](c1ccc(O)c(O)c1)[C@H](O)C2 [(-)-epicatechin] ?
3.12
